pIC50 by entry:
System: 3T3/H-Ras (NIH 3T3 clone 7 cells expressing genomic fragment of oncogenic H-Ras)
Experiment: Growth of NIH 3T3 cells over expressing H-Ras (SRB)
Type: cell-based
Conditions: Mus musculus, NIH3T3, 72 h, growth of 3T3/H-Ras cells, 3 days with compound
pIC50: −log10 of the molar value.
measurement-kind: pIC50

> print(dat)
                                   compound  number
1  CC(C)(C)c1ccc(Oc2cccc3nc(N)nc(N)c23)cc1 [Compound A-8]    4.65
2  Nc1ncnc2cccc(Oc3ccc(OCc4ccccc4)cc3)c12 [Compound A-28]    5.22
3  Nc1nc(N)c2c(Oc3ccccc3)cccc2n1 [Compound A-1, 2,4-Diamino-5-phenoxyquinazoline]    6.07
4  COc1ccccc1Oc1cccc2nc(N)nc(N)c12 [Compound A-22]    6.40
5  Cc1ccc(Oc2cccc3nc(N)nc(N)c23)cc1 [Compound A-9]    4.69

---

System: 3T3/H-Ras (NIH 3T3 clone 7 cells expressing genomic fragment of oncogenic H-Ras)
Assay: Growth of NIH 3T3 cells over expressing H-Ras (SRB)
Type: cell-based
Conditions: Mus musculus, NIH3T3, 72 h, growth of 3T3/H-Ras cells, 3 days with compound
Procedure: The following assay measures growth rates for NIH-3T3 cells expressing RAS. The purpose of the assay is to determine the effects of compounds on the growth of NIH 3T3 cells over expressing H-Ras. […] This party of assay is carried out on the bench. • 1. […] Read plates on Dynatech ELISA Plate REader at 570 nm with reference at 630 nm.
measurement-kind: IC50

> print(dat)
                    molecular.string  measurement.kind    result
1   Nc1nc(N)c2c(Oc3ccc(F)cc3)cccc2n1              IC50  > 100 µM
2  COc1ccc(Oc2cccc3nc(N)nc(N)c23)cc1              IC50  > 100 µM
3  COc1cccc(Oc2cccc3nc(N)nc(N)c23)c1              IC50    0.6 µM

---

System: A549 human lung carcinoma cells
Assay: Growth of A549 cells (SRB)
Format: cell-based
pIC50: −log10 of the molar value.
pIC50 by entry:
measurement-kind: pIC50

> print(dat)
                          molecular.string  number
1        COc1cccc(Oc2cccc3nc(N)nc(N)c23)c1    4.74
2  CC(C)(C)c1ccc(Oc2cccc3nc(N)nc(N)c23)cc1    4.11
3          COc1ccccc1Oc1cccc2nc(N)nc(N)c12    4.59
4         Nc1nc(N)c2c(Oc3ccc(F)cc3)cccc2n1    4.75
5            Nc1nc(N)c2c(Oc3ccccc3)cccc2n1    4.80
6   Nc1ncnc2cccc(Oc3ccc(OCc4ccccc4)cc3)c12    4.49

---

Target: RAF-1 (Homo sapiens, UniProt P04049)
Sequence (P04049 whole entry): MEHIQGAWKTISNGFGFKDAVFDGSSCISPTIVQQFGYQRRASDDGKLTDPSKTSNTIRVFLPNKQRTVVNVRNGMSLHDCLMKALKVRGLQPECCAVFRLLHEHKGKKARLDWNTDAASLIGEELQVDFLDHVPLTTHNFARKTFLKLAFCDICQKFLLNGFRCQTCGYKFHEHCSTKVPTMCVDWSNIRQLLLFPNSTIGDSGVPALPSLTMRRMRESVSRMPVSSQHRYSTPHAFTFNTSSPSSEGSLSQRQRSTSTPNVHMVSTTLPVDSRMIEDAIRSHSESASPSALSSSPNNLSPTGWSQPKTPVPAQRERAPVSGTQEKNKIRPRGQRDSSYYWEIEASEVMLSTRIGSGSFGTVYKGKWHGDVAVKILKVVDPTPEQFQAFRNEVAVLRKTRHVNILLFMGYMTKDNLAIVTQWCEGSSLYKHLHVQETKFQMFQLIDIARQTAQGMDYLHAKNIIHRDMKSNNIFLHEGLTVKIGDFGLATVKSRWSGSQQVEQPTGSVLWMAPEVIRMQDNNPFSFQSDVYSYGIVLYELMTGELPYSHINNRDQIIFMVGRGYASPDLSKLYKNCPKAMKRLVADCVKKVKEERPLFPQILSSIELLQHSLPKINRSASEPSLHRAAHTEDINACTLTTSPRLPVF
Test: RAF-1 ELISA phosphorylation assay (RAF-catalyzed phosphorylation of MEK and MAPK)
Settings: RAF-1 phosphorylation assay, lysates from RAS/RAF infected Sf9 cells, substrates T-MEK and His-MAPK
From the text: The following assay reports the amount of RAF-catalyzed phosphorylation of its target protein MEK as well as MEK's target MAPK. The RAF gene sequence is described in Bonner et al., 1985, Molec. Cell. Biol. 5: 1400-1407, and is readily accessible in multiple gene sequence data banks. […] • 1. […] Wallac beta plate reader #1205, Wallac, Turku, Finnland. • 18. […]
pIC50: −log10 of the molar value.
measurement-kind: pIC50

> print(dat)
                           molecular.string  operator.symbol  number
 1         Nc1nc(N)c2c(Oc3ccc(F)cc3)cccc2n1                =    5.24
 2         Cc1ccc(Sc2cccc3nc(N)nc(N)c23)cc1                <    4.00
 3  CC(C)(C)c1ccc(Oc2cccc3nc(N)nc(N)c23)cc1                <    4.00
 4            Nc1nc(N)c2c(Oc3ccccc3)cccc2n1                =    6.52
 5   Nc1ncnc2cccc(Oc3ccc(OCc4ccccc4)cc3)c12                =    6.52
 6        COc1ccc(Oc2cccc3nc(N)nc(N)c23)cc1                =    6.10
 7    Nc1nc(-c2ccccc2)nc2cccc(Oc3ccccc3)c12                <    4.00
 8               Nc1ncnc2cccc(Sc3ccccc3)c12                =    4.59
 9         Cc1ccc(Oc2cccc3nc(N)nc(N)c23)cc1                =    5.35
10        Nc1nc(N)c2c(Sc3ccc(Cl)cc3)cccc2n1                <    4.00
11        COc1cccc(Oc2cccc3nc(N)nc(N)c23)c1                =    5.19
12          COc1ccccc1Oc1cccc2nc(N)nc(N)c12                =    4.70
13           COc1ccc(Oc2cccc3ncnc(N)c23)cc1                =    6.10
14            Nc1ncnc2cccc(Oc3ccc(F)cc3)c12                =    7.00
15  Nc1nc(N)c2c(Oc3cccc(C(F)(F)F)c3)cccc2n1                <    4.00

---

pIC50 by entry:
Biological target: EGF Receptor (Homo sapiens, UniProt P00533)
Sequence (P00533 25-1210): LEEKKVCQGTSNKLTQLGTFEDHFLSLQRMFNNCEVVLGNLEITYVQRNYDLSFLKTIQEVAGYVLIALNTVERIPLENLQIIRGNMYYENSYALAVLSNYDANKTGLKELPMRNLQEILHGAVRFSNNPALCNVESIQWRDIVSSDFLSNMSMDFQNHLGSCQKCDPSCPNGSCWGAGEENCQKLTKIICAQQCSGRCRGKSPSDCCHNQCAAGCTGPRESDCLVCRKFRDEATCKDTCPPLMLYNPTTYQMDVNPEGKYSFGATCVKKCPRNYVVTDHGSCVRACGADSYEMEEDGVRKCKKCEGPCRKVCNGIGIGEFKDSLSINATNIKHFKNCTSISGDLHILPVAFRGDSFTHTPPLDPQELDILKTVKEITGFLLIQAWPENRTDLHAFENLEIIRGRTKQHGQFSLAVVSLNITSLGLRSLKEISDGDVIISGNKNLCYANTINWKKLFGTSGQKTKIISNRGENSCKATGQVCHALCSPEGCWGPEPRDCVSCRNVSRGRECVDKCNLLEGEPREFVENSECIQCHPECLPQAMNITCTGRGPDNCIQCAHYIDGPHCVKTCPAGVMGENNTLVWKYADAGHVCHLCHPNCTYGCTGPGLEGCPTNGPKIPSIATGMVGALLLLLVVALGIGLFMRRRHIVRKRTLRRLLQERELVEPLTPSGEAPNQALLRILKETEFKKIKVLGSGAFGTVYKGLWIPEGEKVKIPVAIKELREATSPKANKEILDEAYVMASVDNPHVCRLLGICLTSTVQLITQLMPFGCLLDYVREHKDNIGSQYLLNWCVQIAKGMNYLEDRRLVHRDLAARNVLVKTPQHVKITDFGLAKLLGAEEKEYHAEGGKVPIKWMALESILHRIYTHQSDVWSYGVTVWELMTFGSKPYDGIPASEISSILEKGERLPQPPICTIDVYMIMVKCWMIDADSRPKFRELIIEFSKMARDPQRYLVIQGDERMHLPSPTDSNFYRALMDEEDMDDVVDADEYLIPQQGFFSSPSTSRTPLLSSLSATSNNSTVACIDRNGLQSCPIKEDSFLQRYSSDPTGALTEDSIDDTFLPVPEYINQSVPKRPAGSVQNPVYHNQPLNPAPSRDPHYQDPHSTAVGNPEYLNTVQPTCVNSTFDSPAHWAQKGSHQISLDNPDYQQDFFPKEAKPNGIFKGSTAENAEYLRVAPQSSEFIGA
Assay: EGF Receptor kinase activity in whole cells (EGFR-NIH3T3 assay, EGFR ELISA)
Conditions: Table 5, EGFR ELISA assay in whole cells (EGFR-NIH3T3); read-out: IC50 A549
pIC50: −log10 of the molar value.
measurement-kind: pIC50

> print(dat)
                                   compound  operator.symbol  number
1  Nc1nc(N)c2c(Oc3ccc(F)cc3)cccc2n1 [Compound A-7]                <    4.00
2  COc1ccc(Oc2cccc3nc(N)nc(N)c23)cc1 [Compound A-6]                <    4.00
3  Nc1ncnc2cccc(Oc3ccc(OCc4ccccc4)cc3)c12 [Compound A-28]                =    4.12
4  COc1cccc(Oc2cccc3nc(N)nc(N)c23)c1 [Compound A-23]                =    4.76
5  COc1ccccc1Oc1cccc2nc(N)nc(N)c12 [Compound A-22]                <    4.00
6  Nc1nc(N)c2c(Oc3ccccc3)cccc2n1 [Compound A-1, 2,4-Diamino-5-phenoxyquinazoline]                =    4.61
